protocolDetails: yeast display, Sf9 membrane polyspecificity reagent, FACS + sequencing; frameworks hold sequencing errors
recordedMetric: polyreactivity (PSR sort gate)

[
  {
    "residueCodes": "QVQLVESGGGLVQAGGSLRLSCAASGSIFPGNAKGWYRQAPGKERELVASINWSGGSTYYADSVKGRVTISRDNAKNTVYVQMNSLKPEDTAGYYCNARAFRQGHVEYDYWGQGTQVTVSS",
    "polyreactivity (PSR sort gate)": "low polyreactivity"
  },
  {
    "residueCodes": "QVQLVESGGGLVQAGGSLRLSCAASGFTFYQYAMGWYRQAPGKERELVAAITRRGGSTSYADSVKGRFTISRDNAKNTVYLQMNSLKPEDTAVYYCAREGSNSGRHGTLFDYWGQGTQVTVSS",
    "polyreactivity (PSR sort gate)": "high polyreactivity"
  },
  {
    "residueCodes": "QLQLVESGGGLVQARGSLRLICADSGRIFTSYTMGWYRQAPGKERELVAAIDWSGGTTYYADSVKGPFTISRDNAKNTVYFQMISLKPEDTAVYYCSALYVIVGYYTYEYWGQGTQVTVSS",
    "polyreactivity (PSR sort gate)": "low polyreactivity"
  },
  {
    "residueCodes": "QVQLVEYGGGLVQAGGSLRLSCAASGIIFKVYAMGWYRQAPGKEMELVAAISWSGGTTYYADSVKWRFTISRDNAKNTVYLQMNSLKPEDTAVYYCNAVVRVRFRKNDYWGQGTQVTVSS",
    "polyreactivity (PSR sort gate)": "high polyreactivity"
  }
]

Now let's try a different one.
Query (sequence): QVQLVESGGGLVQAGGSLRLSCAASGSTSVTNAMGWYRQAPGKEREFVATINYSGTSTYYADSVKGRFTISRDNAKNTVYLLMNSLKPEDTAVYYCNKTFVRGVHGVYLPITSYDYWAQGTQVTVSS ; field requested: polyreactivity (PSR sort gate)
low polyreactivity

* * *

protocolDetails: yeast display, Sf9 membrane polyspecificity reagent, FACS + sequencing; frameworks hold sequencing errors
recordedMetric: polyreactivity (PSR sort gate)

Take a look at these entries with their results.
[
  {
    "residueCodes": "QVQLVESGGGLVQAGGSLRLSCAASGSTSDPYGMGWYRQAPGKERELVAAISSNGDSTYYADSVKGRFTLSRDNAKNTVYLQMNSLKPEDTAVYYCAARILYSYHLYDYWGQGTQVTVSS",
    "polyreactivity (PSR sort gate)": "high polyreactivity"
  },
  {
    "residueCodes": "QVQLVESGGGLVQAGGSLRLSCGASGFTFSGNVMGWYRQAPGKEREFVAAITSRGGSSYYADSVKGRFTISRDNAKNTVYLQMNSLKPEDTAVYYCNRRRWYFFSLDYWGQGTQVTVSS",
    "polyreactivity (PSR sort gate)": "high polyreactivity"
  },
  {
    "residueCodes": "QVQLVESGGGLVQAGGSLRLTSAASGSIFQNYAMGWYRQAPGKERQLVAVIDDSGGITYYADSVKGRFTISRDNAKNTVYLEMNSLKPEDTAVYYCARNVNAKKVLGGFDSWGQGTQVTVSS",
    "polyreactivity (PSR sort gate)": "low polyreactivity"
  },
  {
    "residueCodes": "QVQLVESGGGLVQAGGSLRLSCAASGRIFDAYAMGWYRQAPGKERELLAAITQSGGSTFYADSVKGRFTISRDNAKNTVYLQMNSLKPEDTAVYYCAKDKFWFRVDGHYRMDYWGQGTQVTVSS",
    "polyreactivity (PSR sort gate)": "low polyreactivity"
  },
  {
    "residueCodes": "QVQLVESGGGLVQAGGSLRLSCAASGITFVRYTMGWYRQAPGKEWELVATITLSGGRTYYADSVQGRFTISRDNAKNTVSLQMTSLKPEDTAVYYCAASSRSRWSGYRYDYWGQGTQVTVSS",
    "polyreactivity (PSR sort gate)": "high polyreactivity"
  },
  {
    "residueCodes": "QVQLVESGGGLVQAGGSLRLSCAASGRTFHPYAMGWYRQAPGKERELVAAITISTNYADSVKGRFTISRDNAKNTVSLQMNSVKPEDTAVYYCNADFVRPSWARGRNNGLYYWGQGTQVTVSS",
    "polyreactivity (PSR sort gate)": "low polyreactivity"
  },
  {
    "residueCodes": "QVQLEESGGGLVQAGGSLRLSCAASGRIFSRYAMGWYRQAPGKERELVAAITQSGTSTYYADSVKGRFTISRDNAKNTVYLQMTSLKPEDTAVYYCNAYRQYRYDYWGQGTQVTVSS",
    "polyreactivity (PSR sort gate)": "low polyreactivity"
  },
  {
    "residueCodes": "QVQLVESGGGLVQAGGSLRLSSAASGLTFYVYAMGWYRQGPGKEREWVARITWSGGSTYYADSVKGRFTISRDHAKNTVYLQMNSLKPEDTAVYYCAAEWSEESDYWGQGTQVTVSS",
    "polyreactivity (PSR sort gate)": "low polyreactivity"
  },
  {
    "residueCodes": "QVQLVESGGGLVQAGGSLRLSCAASGSIFVQYDMGWYRQAPGKERELVAAITSGSSTNYADSVKGRFTISRDNAKNTVYLQMNSLKPEDTAVYYCAASTPYSYRYDYWGQGTQVTVSS",
    "polyreactivity (PSR sort gate)": "low polyreactivity"
  },
  {
    "residueCodes": "QVQLVESRGGLVQAGGSLRLSCAASGRIIPSYMGWYRQAPGKQRELVARISNTGSTYYADSVKGRFTISRDNAKNTVYLQMNRLKPEDTAVYYCAAVYIFRVFSHPPYDYWGQGTQVTVST",
    "polyreactivity (PSR sort gate)": "low polyreactivity"
  }
]

Now let's try a different one.
Query (sequence): QVQLVESGGGLVQAGGSLRLSCAASGSILKFNAMGWYRQAPGKERELVAAITRGTNTYYADSVKGRFTISRDNAKNTVYLQMNSLKPEDSAVYYCAARQPYNAFGYFYWGQGTQVTVSS ; field requested: polyreactivity (PSR sort gate)
low polyreactivity

* * *

protocolDetails: yeast display, Sf9 membrane polyspecificity reagent, FACS + sequencing; frameworks hold sequencing errors
recordedMetric: polyreactivity (PSR sort gate)

Take a look at these entries with their results.
[
  {
    "residueCodes": "QVQLVESGGGLVQAGGSLRLSCAASGLTFQSYVMGWYRPAPGKERELVAAISWSGTRTYFADSVKGRFTISRDNAKNTVYLQMYSLKPEDTAVYSCAADFYTWYEERYWSYNYWGQGTQVTVSS",
    "recordedValue": "high polyreactivity"
  },
  {
    "residueCodes": "QVQLVESGGGLVQAGGSLRLSCAASGFTFAPNAMAWYRQAPGKERELVAAITWSGGSTYYADSVKGRFTISRDNAKNTVYLQMNSLKPEDTAVYYCNAVSRSTVTGQHDYWGQGTQVTVSS",
    "recordedValue": "high polyreactivity"
  },
  {
    "residueCodes": "QVQLVESGGGLVQAGGSLRLSCAASGRIFYPNDLGWYRQAPGKERELVAAITRDGSTNYADSVKGRFTISRDNAKNTVYLQMNSLKPEDTAVYYCAADISDWYIIRRMNYWGQGTQVTVSS",
    "recordedValue": "low polyreactivity"
  },
  {
    "residueCodes": "RVQLQESGGGLVQAGGSLRLSCAASGTIFNRGDMGWYRQAPGKEREFVATIDTGSNTYYADSEKGPFTISRDNAKNAVYLQMNCLKPGATAVYYCVVDYQLSGRLRYWGQGTQVTLSS",
    "recordedValue": "low polyreactivity"
  }
]

Now let's try a different one.
Query (sequence): QVQLVESGGGLVQAGGSLRLSCAASGSIFDDYAMGWYRQAPGKERELVAAISWSGGRTYYADSVKGRFTISRDNAKNTVYLQMNSLKPEDTAVYYCAATTGVRSRRYYYWGQGTQVTVSS ; field requested: polyreactivity (PSR sort gate)
low polyreactivity

* * *

protocolDetails: yeast display, Sf9 membrane polyspecificity reagent, FACS + sequencing; frameworks hold sequencing errors
recordedMetric: polyreactivity (PSR sort gate)

Take a look at these entries with their results.
[
  {
    "residueCodes": "QVQLLESGGGLVQAGGFLRLSCASSGSTFFIYAMGWYRPAPGKERELDAAISWSGGSTYYADSVKGRFTISPDKANNTVYLQMICLKPEYTAVYYCADESYYFDEYYWGQATQVTVSS",
    "recordedMetric": "polyreactivity (PSR sort gate)",
    "recordedValue": "high polyreactivity"
  },
  {
    "residueCodes": "QVQLVESGGGLVQAGGSLRLSCAASGSIFRSYAMGWYRQAPGKERELVASISRRGGSTYYADSVKGRFTISRDNAKNTVYLQMNSLKPEDTAVYYCAVESGYTRSSDYWGQGTQVTVSS",
    "recordedMetric": "polyreactivity (PSR sort gate)",
    "recordedValue": "low polyreactivity"
  },
  {
    "residueCodes": "QVQLVESGGGVVQAGGSLRLSCAASGSIFAGNAMGGSRQAPGKERELVAAITFSAGRTSYADSVKGRFTISRDNAKNTVYFQMNSLKPEDTAVYYCNALLTVRHVKSDYDYWGQGTQVTVSS",
    "recordedMetric": "polyreactivity (PSR sort gate)",
    "recordedValue": "low polyreactivity"
  },
  {
    "residueCodes": "QVQLVESGGGLVQAGGSLRLSCAASGSIFGWYAMGGYRQAPGKESELVASISVTAGSTYYADSVKWRFTMSRDYAKNTVYLQMNSLKPEDTAVYYCAADDYTADAVQRFYYWGQGTQVTVSS",
    "recordedMetric": "polyreactivity (PSR sort gate)",
    "recordedValue": "low polyreactivity"
  }
]

Now let's try a different one.
Query (sequence): QVQLVESGGGLVQAGGTLRLSCAASGRTFKKYTMGWYRQAPGKERELVAVITSGGSTYYADSVKGRFTISRDNAKNTVYLQMNSLKPEDTAVYYCAVKYPELRTWGYYYWGQGTQVTVSS ; field requested: polyreactivity (PSR sort gate)
high polyreactivity
